Data provenance is patent US8410097B2.

target: CB2 cannabinoid receptor (Mus musculus, UniProt P47936); assay: biochemical; format: binding; conditions: CB2 Ki, Table 6; mouse spleen membranes, [3H] CP-55,940
Sequence (P47936 whole entry): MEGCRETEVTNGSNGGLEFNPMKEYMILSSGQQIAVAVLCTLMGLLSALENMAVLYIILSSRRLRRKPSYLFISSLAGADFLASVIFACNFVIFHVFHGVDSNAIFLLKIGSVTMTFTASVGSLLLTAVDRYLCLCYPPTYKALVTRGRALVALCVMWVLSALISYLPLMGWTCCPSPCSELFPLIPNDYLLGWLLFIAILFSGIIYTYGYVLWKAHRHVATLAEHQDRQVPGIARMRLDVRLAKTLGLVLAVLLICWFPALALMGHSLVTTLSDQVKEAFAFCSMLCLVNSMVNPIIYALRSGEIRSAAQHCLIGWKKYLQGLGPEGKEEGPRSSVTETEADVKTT
REPORTED_METRIC: pKi
Answers are plain numbers, as −log10 of the molar value.

These recorded examples may help you get a feel for the data.
- CHEM_SMILES: "Cc1c(C(=O)N(C)C2CCCCC2)nc(-c2ccc(Cl)cc2Cl)n1-c1ccc(-c2nnnn2C)cc1"
  RECORDED_RESULT: 5.38
- CHEM_SMILES: "O=C(NN1CCCCC1)c1nc(-c2ccc(Cl)cc2Cl)n(-c2ccc(Br)cc2)c1CO"
  RECORDED_RESULT: 6.50
- CHEM_SMILES: "Cc1c(C(=O)NN2CCCCC2)nc(-c2ccc(Cl)cc2Cl)n1-c1ccc(Br)cc1"
  RECORDED_RESULT: 6.34

For every item in the list below, what is its measured pKi?
1. Cc1c(NC(=O)NC2CCCCC2)nc(-c2ccc(Cl)cc2Cl)n1-c1ccc(Br)cc1
2. O=C(NN1CCCCC1)c1nc(-c2ccc(Cl)cc2Cl)n(-c2ccc(C#CCO)cc2)c1CO

[4.69, 5.27]

---

target: CB2 cannabinoid receptor (Mus musculus, UniProt P47936); assay: biochemical; type: binding; details: Receptor Affinities Ki (nM) CB2, Table 8; mouse spleen membranes
REPORTED_METRIC: Ki (nM)
Answers are plain numbers, in nM.

What value of Ki has been recorded for this entry: Cc1c(C(=O)N(C)C2CCCCC2)nc(-c2ccc(Cl)cc2Cl)n1-c1ccc(C#CCCO)cc1
440

---

Provide the recorded Selectivity CB1 for the entries that follow.
biological target: CB1 cannabinoid receptor (Rattus norvegicus); construct: membranes were prepared from rat forebrain membranes; from tissue; host or cells: rat forebrain membranes; assay: biochemical; type: binding; conditions: Table 9; CB1 over CB2 binding selectivity (ratio of Ki)
Sequence (P20272 whole entry): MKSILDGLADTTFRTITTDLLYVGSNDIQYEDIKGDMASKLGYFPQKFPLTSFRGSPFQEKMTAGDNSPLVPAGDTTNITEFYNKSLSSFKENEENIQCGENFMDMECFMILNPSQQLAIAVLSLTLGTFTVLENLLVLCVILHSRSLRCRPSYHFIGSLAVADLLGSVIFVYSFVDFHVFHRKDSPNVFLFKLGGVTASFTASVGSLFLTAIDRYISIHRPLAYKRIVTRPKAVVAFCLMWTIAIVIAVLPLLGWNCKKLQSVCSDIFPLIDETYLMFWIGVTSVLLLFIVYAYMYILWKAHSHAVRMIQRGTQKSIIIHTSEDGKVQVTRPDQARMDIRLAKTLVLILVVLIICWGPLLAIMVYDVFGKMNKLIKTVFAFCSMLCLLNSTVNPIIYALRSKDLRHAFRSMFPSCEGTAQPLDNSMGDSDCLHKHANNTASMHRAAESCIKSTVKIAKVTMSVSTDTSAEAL
One number for each entry.

Worked examples, 4 molecules total:
- CHEM_SMILES: "Cc1c(C(=O)NN2CCCCC2)nn(-c2ccc(Cl)cc2Cl)c1-c1ccc(CCCO)cc1"
  REPORTED_METRIC: "Selectivity CB1"
  RECORDED_RESULT: 8
- CHEM_SMILES: "Cc1c(C(=O)NN2CCCCC2)nn(-c2ccc(Cl)cc2Cl)c1-c1ccc(CCCCN=[N+]=[N-])cc1"
  REPORTED_METRIC: "Selectivity CB1"
  RECORDED_RESULT: 59
- CHEM_SMILES: "Cc1c(C(=O)N(C)C2CCCCC2)nc(-c2ccc(Cl)cc2Cl)n1-c1ccc(CCCO)cc1"
  REPORTED_METRIC: "Selectivity CB1"
  RECORDED_RESULT: 3
- CHEM_SMILES: "Cc1c(C(=O)NN2CCCCC2)nn(-c2ccc(Cl)cc2Cl)c1-c1ccc(CCC#N)cc1"
  REPORTED_METRIC: "Selectivity CB1"
  RECORDED_RESULT: 176

Batch of 2 molecules: report Selectivity CB1 for each.
1. O=C(NN1CCCCC1)c1nn(-c2ccc(Cl)cc2Cl)c(-c2ccc(CCCCO)cc2)c1CO
2. Cc1c(C(=O)NN2CCCCC2)nn(-c2ccc(Cl)cc2Cl)c1-c1ccc(CCCCO)cc1

1. 243
2. 21

Entry O=C(NN1CCCCC1)c1nn(-c2ccc(Cl)cc2Cl)c(-c2ccc(CCCO)cc2)c1CO : reported Selectivity CB1 = ?
3
